Tested on: murine podocytes
assay-notes: Podocyte HCS phenotypic assay, PAN-induced podocyte injury
Format: cell-based
condition-summary: PAN 16 μg/ml, 48 hours, F-actin fibers per cell (FIG. 8); read-out: apparent half-maximal effective concentration (EC50), protection from PAN-induced damage
test-readout: EC50 (nM)
Just the number in nM, nothing appended.

Sure, the documented EC50 for `O=S(=O)(NCC1CC1)c1ccc(Nc2nccc(N3CCCc4cc(O)ccc43)n2)cc1` is 800
